Give measured growth for each item. Keep answers brief.
Test system: CCRF-CEM leukemia
Test: NCI-60 one-dose screen, 48 h (100 = growth as untreated, 0 = no growth, -100 = all killed)
Conditions: 10 µM unless noted
Compounds without any hit were thinned out: in the full panel of roughly 83,000, 20% have a hit.
Answers are plain numbers, in %.

Consider the following illustrative entries.
- CC(=O)Nc1ccc(-n2cnc3cc(-c4ccc(O)cc4)ccc32)cc1C(F)(F)F: 40.5
- C(=C\c1cc(/C=C/c2ccccc2)c2ccccc2n1)/c1ccccc1: 60.8
- CNS(=O)(=O)c1ccc(Nc2ccc(C(F)(F)F)cc2)c(-c2cn(C)cn2)c1: 51.2
- COc1ccc(/C=C/c2n(Cc3ccc4ccccc4c3)c3ccccc3[n+]2Cc2ccc3ccccc3c2)cc1: -24.2
- Cc1c(C(=O)NNC(=O)Nc2ccc(Cl)cc2)nnn1-c1ccc(Br)cc1: 89

For each listed entry, give its growth.
1. COc1ccc2[nH]cc(-c3nc(N)nnc3-c3cn(C)c4ncccc34)c2c1
2. COc1cc2oc(-c3cccc(C(=O)Nc4ccc(Cl)cc4)c3)cc(=O)c2c(OCC(=O)N[C@@H](Cc2ccccc2)C(=O)O)c1OC
3. COc1c(F)ccc(C(=O)Nc2ccc3nc(NC(=O)C4CCCN(S(=O)(=O)c5cccc(C(F)(F)F)c5)C4)sc3c2)c1F (stereo not given)
4. COc1cc(-c2nc3ccc(C)cc3[nH]2)ccc1OCc1nnc(-c2ccc(Br)cc2)o1
5. CC(C)Sc1nc(NCCc2c[nH]c3ccccc23)c(C#N)c(-c2ccccc2)n1

[67.7, 98.9, 88.7, 26.4, 8.66]
